assay: Human HepG2 cell viability assay in 384 well format; format: toxicity, cell-based; parameters: dose 125 nL, time 70.5 hour; concentration not given beside the values; conditions: HepG2 cells, read-out: Inhibition
measurement.kind: cytotoxicity at 70.5 h (%)
One number for each entry, in %.

Use these answered entries as a reference point.
{"columns": ["compound", "measurement.kind", "test.result"],
 "data": [
  ["CCCOC(=O)N1CCn2nc(-c3nc4ccccc4n3C)cc2C1", "cytotoxicity at 70.5 h", -5.25],
  ["CCCn1ccc2cc(NC(=O)NCCn3cnnc3CC)ccc21", "cytotoxicity at 70.5 h", -9.53],
  ["CN(C)c1nc2c(c(N(C)C)n1)CCN(C(=O)CN1CCC(O)CC1)C2", "cytotoxicity at 70.5 h", -7.75],
  ["CC(C)[C@H]1CN(c2ccncc2)C[C@@H]1NC(=O)C1(C#N)CCOCC1", "cytotoxicity at 70.5 h", -8.3],
  ["O=C1NCC(C(=O)Nc2ncc(Cc3ccc(F)cc3)s2)N1 (stereo not given)", "cytotoxicity at 70.5 h", -3.14],
  ["Cc1nc(CC(=O)N2CCCC[C@H](N(C)C)C2)cs1", "cytotoxicity at 70.5 h", -7.83],
  ["CCOCc1nc2c(c(NC(CC)c3cccnc3)n1)CCNCC2 (stereo not given)", "cytotoxicity at 70.5 h", -3.13],
  ["COCC(=O)N1CC(c2n[nH]cc2C)C1", "cytotoxicity at 70.5 h", -6.26]
]}

I need cytotoxicity at 70.5 h for every entry listed below, if you could help.
1. CCCc1cc(C(=O)N2CC(c3ccncc3)C2)ccn1
2. CSCc1cccc(S(=O)(=O)Nc2cc(C)on2)c1
3. CC(C)(C)c1cc(CN2CCOC(CN)C2)n[nH]1 (stereo not given)
4. Cc1ccccc1[C@@H]1CN(CCOCCO)C[C@H]1C(=O)O
5. CC(C)(C)c1csc(CNC(=O)C2NCCc3[nH]cnc32)n1 (stereo not given)
6. O=C(Cc1ccco1)N1C[C@H]2CCC[C@@]2(COCc2cccnc2)C1
7. CNC(=O)c1cccc(C2CNCCN2C)c1 (stereo not given)
8. O=C1NC[C@@]2(C(=O)O)CN(Cc3cccc(Oc4ccccc4)c3)C[C@@H]12

Ans.
1: 8.75; 2: 3.33; 3: 2.01; 4: -6.95; 5: -9.53; 6: -10.4; 7: 19.9; 8: -4.3

Below is a list of compounds. For each, state its recorded cytotoxicity at 70.5 h.
1. Cc1nn(C)c(N(C)C)c1CNCc1nnc2n1CCCCC2
2. COCC(=O)NCc1cccnc1-n1cnc2ccccc21
3. CC(NC(=O)NCCCO)c1ccc2c(c1)NC(=O)CO2 (stereo not given)
4. O=C(O)c1c(-c2cccnc2)ncc2c1CCN(Cc1cccnc1)C2
5. CCN(Cc1cccc(F)c1)c1ccc2nnnn2n1
6. Nc1nnnn1NCc1cccc2ccccc12
7. CC(=O)c1c(F)cccc1N1CCC(CS(N)(=O)=O)CC1

Ans.
[-6.41, -0.396, -12, -5.73, -1.32, -11.8, -10.5]

For each of the compounds below, note its cytotoxicity at 70.5 h.
1. CC(=O)N1CCCC(c2ccnc(Nc3cnccn3)n2)C1 (stereo not given)
2. CCc1nnc2n1CC(CNc1cnc3ccccc3n1)CC2 (stereo not given)

Ans.
-7.2
1.47
